# assayExplanation: Intrinsic clearance in mouse liver microsomes
# Format: in vitro ADME
# runConditions: mouse liver microsomal intrinsic clearance
Recorded Mouse CLi for the following compounds

compound	rel	Mouse CLi [mL/min/g]
COc1ccc(S(=O)(=O)Nc2ccc(CN3CCN(C(=O)c4cc(Cl)ccc4OC)CC3)cc2)cc1	>	50
Cc1ccc(S(=O)(=O)Nc2ccc(CN3C[C@@H]4CN(C(=O)c5cccc(Cl)c5)C[C@@H]4C3)cc2)cc1	>	50
CN1CCN(S(=O)(=O)Nc2ccc(CN3CCN(C(=O)c4cccc(Cl)c4)CC3)cc2)CC1	=	32
COc1ccc(S(=O)(=O)Nc2ccc(CN3CCN(C(=O)Cn4cccnc4=O)CC3)cc2)cc1	<	0.5
COc1ccc(S(=O)(=O)Nc2ncc(CN3CCN(C(=O)c4cccc(Cl)c4)CC3)cn2)cc1	=	1.0
O=C(c1cccc(Cl)c1)N1CCN(Cc2ccc(NS(=O)(=O)CC3CCCO3)cc2)CC1 (centres unmarked)	=	44
COc1ccc(S(=O)(=O)Nc2ccc(CN3CC[C@H](NC(=O)c4cccc(Cl)c4)C3)cc2)cc1	>	50
COc1ccc(S(=O)(=O)Nc2ncc(CN3CCN(C(=O)c4cccc(Cl)c4)CC3)nc2OC)cc1	=	1.2
COc1ccc(S(=O)(=O)Nc2ccc(CN3CCN(C(=O)c4cncc(Cl)c4)CC3)cc2)cc1	>	50
O=C(c1cccc(Cl)c1)N1CCN(Cc2ccc(N3CCCCS3(=O)=O)cc2)CC1	=	21
COc1ccc(S(=O)(=O)Nc2ccc(CN3CCN(C(=O)c4ccc(C)c(Cl)c4)CC3)cc2)cc1	>	50
COc1ccc(S(=O)(=O)Nc2ccc(CN3CCN(C(=O)c4cc(C(F)(F)F)n[nH]4)CC3)cc2)cc1	=	6.4
COc1ccc(S(=O)(=O)Nc2ccc(CN3CCN(C(=O)c4ccc(OC)c(Cl)c4)CC3)cc2)cc1	>	50
Cc1ccc(S(=O)(=O)Nc2ccc(CNC3CN(C(=O)c4cccc(Cl)c4)C3)cc2)cc1	>	50

---

Recorded Mouse CLi for the following compounds
# assayExplanation: Intrinsic clearance in mouse liver microsomes
# Format: in vitro ADME
# runConditions: mouse liver microsomal intrinsic clearance

compound	rel	Mouse CLi (mL/min/g)
COc1ccc(S(=O)(=O)Nc2nnc(CN3CCN(C(=O)c4cccc(Cl)c4)CC3)o2)cc1 [Compound 41]	=	0.6
COc1ccc(S(=O)(=O)Nc2ccc(CN3CCN(C(=O)c4cccc(Cl)c4)CC3)cc2)cc1 [Compound 4]	>	50
Cc1ccc(S(=O)(=O)Nc2ccc(CN3CCN(C(=O)Cc4coc5ccccc45)CC3)cc2)cc1 [Compound 25]	>	50
Cc1ccc(S(=O)(=O)Nc2ccc(CN[C@@H]3CCN(C(=O)c4cccc(Cl)c4)C3)cc2)cc1 [Compound 32]	=	48
Cc1ccc(S(=O)(=O)Nc2ccc(CN(C)[C@H]3CCN(C(=O)c4cccc(Cl)c4)C3)cc2)cc1 [Compound 33]	>	50
Cc1ccc(S(=O)(=O)Nc2ccc(CN3CCN(C(=O)c4cccc(Cl)c4)CC3)cc2)cc1 [Compound 1]	>	50
Cc1ccc(S(=O)(=O)Nc2ccc(CN(C)C3CCN(C(=O)c4cccc(Cl)c4)C3)cc2)cc1 (stereo in doubt) [Compound 34]	>	50
COc1ccc(S(=O)(=O)Nc2ccc(CN3CCN(C(=O)C4CCCN(C)C4)CC3)cc2)cc1 (stereo not drawn) [Compound 20]	=	1.5
Cc1ccc(S(=O)(=O)Nc2ccc(CN3CCN(C(=O)c4cc5ccccc5[nH]4)CC3)cc2)cc1 [Compound 23]	=	40
COc1ccc(S(=O)(=O)Nc2ccc(OC3CCN(C(=O)c4cccc(Cl)c4)CC3)cc2)cc1 [Compound 28]	=	37
COc1ccc(S(=O)(=O)Nc2ccc(CN3CCN(C(=O)c4cccc(F)c4)CC3)cc2)cc1 [Compound 11]	>	50
COc1ccc(S(=O)(=O)Nc2ccc(CN3CCN(C(=O)c4cccc(Cl)c4)CC3)nc2)cc1 [Compound 44]	=	39
COc1ccc(S(=O)(=O)Nc2cnc(CN3CCN(C(=O)c4cccc(Cl)c4)CC3)cn2)cc1 [Compound 45]	=	1.3
CS(=O)(=O)Nc1ccc(CN2CCN(C(=O)c3cccc(Cl)c3)CC2)cc1 [Compound 2]	=	2.6
O=C(c1cccc(Cl)c1)N1CCN(Cc2ccc(NS(=O)(=O)c3ccc4c(c3)OCO4)cc2)CC1 [Compound 6]	>	50

---

Recorded solubility for the following compounds
# assayExplanation: Aqueous (kinetic) solubility by CAD
# Format: physicochemical
# runConditions: kinetic solubility measured by CAD
quantityKind: solubility (µM)

compound	quantityKind	rel	measuredValue
COc1ccc(S(=O)(=O)Nc2ccc(CN3C[C@@H]4C[C@H]3CN4C(=O)c3cccc(Cl)c3)cc2)cc1 [Compound 39]	solubility	=	47
COc1ccc(S(=O)(=O)Nc2ncc(CN3CCN(C(=O)c4cccc(Cl)c4)CC3)cn2)cc1 [Compound 42]	solubility	≥	345
Cc1ccc(S(=O)(=O)Nc2ccc(CN3CCN(C(=O)Cc4coc5ccccc45)CC3)cc2)cc1 [Compound 25]	solubility	=	22
CN1CCN(S(=O)(=O)Nc2ccc(CN3CCN(C(=O)c4cccc(Cl)c4)CC3)cc2)CC1 [Compound 9]	solubility	≥	430
O=C(c1cccc(Cl)c1)N1CCN(Cc2ccc(NS(=O)(=O)CC3CCCO3)cc2)CC1 (centres unmarked) [Compound 7]	solubility	=	486

---

Recorded chromatographic logD for the following molecules
# assayExplanation: ChromLogD pH7.4 (chromatographic hydrophobicity index)
# Format: physicochemical
# runConditions: pH 7.4; CHIpH7.4 × 0.0857–2; read-out: ChromlogDpH7.4
quantityKind: chromatographic logD

molecule	quantityKind	measuredValue
COc1ccc(S(=O)(=O)Nc2ccc(CN3CCN(C(=O)c4cccc(F)c4)CC3)cc2)cc1 [Compound 11]	chromatographic logD	4.8
COc1ccc(S(=O)(=O)Nc2ccc(CN3CCN(C(=O)c4ccc(C)c(Cl)c4)CC3)cc2)cc1 [Compound 15]	chromatographic logD	5.8
O=C(c1cccc(Cl)c1)N1CCN(Cc2ccc(NS(=O)(=O)c3ccccc3)cc2)CC1 [Compound 3]	chromatographic logD	5.5
Cc1ccc(S(=O)(=O)Nc2ccc(CN3CCN(C(=O)c4cccc(Cl)c4)CC3)cc2)cc1 [Compound 1]	chromatographic logD	5.8
COc1ccc(S(=O)(=O)Nc2ccc(CN3C[C@@H]4C[C@H]3CN4C(=O)c3cccc(Cl)c3)cc2)cc1 [Compound 39]	chromatographic logD	5.1
COc1ccc(S(=O)(=O)Nc2ccc(CCN3CCN(C(=O)c4cccc(Cl)c4)CC3)cc2)cc1 [Compound 40]	chromatographic logD	5.5
COc1ccc(S(=O)(=O)Nc2ncc(CN3CCN(C(=O)c4cccc(Cl)c4)CC3)cn2)cc1 [Compound 42]	chromatographic logD	3.1
COc1ccc(S(=O)(=O)Nc2ccc(CN3CCN(C(=O)c4cccc(Cl)c4)CC3)cc2)cc1 [Compound 4]	chromatographic logD	5.6
COc1ccc(S(=O)(=O)Nc2ccc(CN3CC[C@H](NC(=O)c4cccc(Cl)c4)C3)cc2)cc1 [Compound 30]	chromatographic logD	5.1

---

# assayExplanation: Aqueous (kinetic) solubility by CAD
# Assay type: physicochemical
# runConditions: kinetic solubility measured by CAD
Recorded solubility for the following compounds

compound	solubility
COc1ccc(S(=O)(=O)Nc2nnc(CN3CCN(C(=O)c4cccc(Cl)c4)CC3)o2)cc1	≥ 404 µM
COc1ccc(S(=O)(=O)Nc2ccc(CN3CCN(C(=O)Cn4cccnc4=O)CC3)cc2)cc1	≥ 336 µM
COc1ccc(S(=O)(=O)Nc2cnc(CN3CCN(C(=O)c4cccc(Cl)c4)CC3)cn2)cc1	≥ 414 µM
COc1ccc(S(=O)(=O)Nc2ccc(CN3CCN(C(=O)C4CCCN(C)C4)CC3)cc2)cc1 (centres unmarked)	≥ 526 µM
Cc1ccc(S(=O)(=O)Nc2ccc(CN[C@@H]3CCN(C(=O)c4cccc(Cl)c4)C3)cc2)cc1	75 µM
COc1ccc(S(=O)(=O)Nc2ccc(CN3CCN(C(=O)C4CN(C(C)=O)C4)CC3)cc2)cc1	≥ 511 µM
COc1ccc(S(=O)(=O)Nc2cnc(CN3CCN(C(=O)c4cccc(Cl)c4)CC3)nc2)cc1	≥ 474 µM
COc1ccc(S(=O)(=O)Nc2ccc(CN3CCN(C(=O)c4cccc(Cl)c4)CC3)nc2)cc1	≥ 373 µM

---

Recorded solubility for the following compounds
# assayExplanation: Aqueous (kinetic) solubility by CAD
# Assay type: physicochemical
# runConditions: kinetic solubility measured by CAD
quantityKind: solubility (µM)

compound	measurementUnit	rel	measuredValue
N#Cc1ccc(S(=O)(=O)Nc2ccc(CN3CCN(C(=O)c4cccc(Cl)c4)CC3)cc2)cc1	µM	=	54
COc1ccc(S(=O)(=O)Nc2ccc(CN3CCN(C(=O)c4cncc(Cl)c4)CC3)cc2)cc1	µM	=	171
COc1ccc(S(=O)(=O)Nc2ccc(OC3CCN(C(=O)c4cccc(Cl)c4)CC3)cc2)cc1	µM	<	1
Cc1ccc(S(=O)(=O)Nc2ccc(CN3CCC(NC(=O)c4cccc(Cl)c4)CC3)cc2)cc1	µM	=	42
COc1ccc(S(=O)(=O)Nc2ccc(CN3CCN(C(=O)C4CC(O)(C(F)(F)F)C4)CC3)cc2)cc1 (centres unmarked)	µM	≥	374
COc1ccc(S(=O)(=O)Nc2ccc(Cn3cc4c(n3)CN(C(=O)c3cccc(Cl)c3)C4)cc2)cc1	µM	=	19
Cc1ccc(S(=O)(=O)Nc2ccc(CN3C[C@@H]4CN(C(=O)c5cccc(Cl)c5)C[C@@H]4C3)cc2)cc1	µM	=	25
Cc1ccc(S(=O)(=O)Nc2ccc(CN3CCN(C(=O)c4cccc(Cl)c4)CC3)cc2)cc1	µM	=	38
COc1ccc(S(=O)(=O)Nc2ccc(CN3CCN(C(=O)c4ccccc4)CC3)cc2)cc1	µM	=	116
COc1ccc(S(=O)(=O)Nc2ccc(CN3CCN(C(=O)c4ccc(OC)c(Cl)c4)CC3)cc2)cc1	µM	=	18
COc1ccc(S(=O)(=O)Nc2ccc(CN3CCN(C(=O)c4ccnc(C)n4)CC3)cc2)cc1	µM	=	414
